Where these numbers come from: patent US20250161299A1

assay: Phase I trial of oral PCLX-001: plasma pharmacokinetics, noncompartmental analysis (Phoenix WinNonlin 8.3); type: in vivo, human; conditions: human, plasma, oral, 20 mg, Table 4; Mean; not on Pantoprazole; 20 mg; N 3; Day 1; read-out: AUClast
measured metric: AUC(0-t) (ng·h/mL)
Return type: number; implicit unit ng·h/mL.

Problem: Suppose we examine the compound `Cc1c(NS(=O)(=O)c2c(Cl)cc(-c3ccnc(N4CCNCC4)c3)cc2Cl)c(CC(C)C)nn1C` ; what AUC(0-t) value has been reported?
Result: 1600

====

experiment: Phase I trial of oral PCLX-001: plasma pharmacokinetics, noncompartmental analysis (Phoenix WinNonlin 8.3); type: in vivo, human; details: human, plasma, po, 20 mg, Table 1A; Patient 115-002-001 (Patient 1); Day 1; 20 mg oral daily
measured metric: Cmax
Be sure to follow the number with its unit.

Problem: Give the measured Cmax of `Cc1c(NS(=O)(=O)c2c(Cl)cc(-c3ccnc(N4CCNCC4)c3)cc2Cl)c(CC(C)C)nn1C` .
Result: 353 ng/mL
